protocol.description: soluble on expression in E. coli; label from the status in PepcDB or PDB records
measured.quantity: soluble on expression in E. coli

Record excerpt, results attached:
GSGMEQFPKETVVESSGPKVLETAEEIQERRQEVLTRYQSFKERVAERGQKLEDSYHLQVFKRDADDLGKWIMEKVNILTDKSYEDPTNIQGKYQKHQSLEAEVQTKSRLMSELEKTREERFTMGHSAHEETKAHIEELRHLWDLLLELTLEKGDQLLRAL = soluble
MGSDKIHHHHHHMMDFYIKQIIIHQFSPNDTELVLSDTPLTLTPRIDDYFRKKLSKVFSDEAKRGYFGEDNVFMSHLQDDLYVSSCQIAQLWKEEFVISEDQKTNDLVFIQFDKDGMEHFAFLRISLKEQFAHVSENQEQPITITQNNLPSAAQTPDEALVVNKSSKQYYLIEKRIKHNGSFANYFSENLLQVQPEQSVKKSIKMVEQTAQKIAENFNKDDFSFQSKMKSAIYKNLEEEQELSPEKLADQLFDDNLTARLTFVDELKDAIPGPVQVSDIDHSRQIKKLENQKLSLSNGIELIVPNNVYQDAESVEFIQNPDGTYSILIKNIQDIQNK = not soluble
GYIVDMSKWNGSPDWDTAKGQLDLVIARVQDGSNYVDPVYKDYVAAMKARNIPFGSYAFCRFVSVEDAKVEARDFWNRGDKDSLFWVADVEVTTMSDMRAGTQAFIDELYRLGAKKVGLYVGHHKYEEFGAAQIKCDFTWIPRYGAKPAYPCDLWQYDEYGQVPGIGKCDLNRLNGDKSLDWFTGKGEE = soluble
LFTESAKAVLAIAQEEAKYFRHQSVGSEHLLLALVLEPNGIAGKTLRQLNTDTEDIREEIEHLSGYGTMQSPMGNNNLYLPYSPRAKQIFAYAGDEAKRLGAQKIGTEHLLLGLLRDEEILASRILVNLGLSLSKMRQLLLKKMG = not soluble
MGSDKIHHHHHHMSIKSDKWIRRMSEEFGMIDPFEPNQIKEADGQRIISYGTSSYGYDIRCANEFKIFTNINSTIVDPKNFDPKNFVTVEDDCCIIPPNSFALARTVEYFRIPRNVLTVCLGKSTYARCGIIVNVTPFEPEWEGYVTLEFSNTTPLPAKIYAGEGVAQVLFFESDEVCETSYKDRNGKYMGQTGVTLPKA = not soluble

Value lookup for soluble on expression in E. coli; key = `SLARKRRSTQRFSTTRKLKKERKIGTGKKEAEPLLPDLAEINAPDLMPTLVLNFDNVLASIAYDPVKGYIVRKRPGVDAFLSTLANFYELVLWSDHPFPFIEDLLRARLEWPISFTLYQENMDRRGSSRYRKIVQKGPFFKATRGVACSSGLSETAETLEEIFDNLERLGRRMDRVLYIDIDGSVLPSTQMRNFIKVTPFHGEAQEMLEDHALPELTDLLIGAAVSAGDVREMLLRYGGGADGNVGKR`
soluble
